Experiment Summary: physchem
Test Conditions: 20 °C, organic solvent or mixture, thermodynamic from solid, Solubility at 20° C., methanol, aliquot addition
Counter-ions that a name gives are not always drawn.
Observed Property: solubility

CN(C)CCn1c(CC(C)(C)C)nc2cc(S(=O)(=O)C3CN(CCO)C3)ccc21 [AAT-730 HCl salt] ... < 20 mg/mL

----------
Experiment Summary: physchem
Test Conditions: pH 6, water, thermodynamic from solid, aqueous solubility, water, pH 6-7, aliquot addition
Counter-ions that a name gives are not always drawn.
Observed Property: solubility

CN(C)CCn1c(CC(C)(C)C)nc2cc(S(=O)(=O)C3CN(CCO)C3)ccc21 [AAT-730 HCl salt Pattern 2] ... 197 to 263 mg/mL

----------
Experiment Summary: physchem
Test Conditions: 20 °C, organic solvent or mixture, thermodynamic from solid, Solubility at 20° C., tetrahydrofuran, aliquot addition
Where a name gives a salt, the structure may show the parent alone.
Observed Property: solubility

CN(C)CCn1c(CC(C)(C)C)nc2cc(S(=O)(=O)C3CN(CCO)C3)ccc21 [AAT-730 HCl salt] ... < 20 mg/mL

----------
Experiment Summary: physchem
Test Conditions: aqueous with cosolvent or surfactant or cyclodextrin, thermodynamic from solid, solubility
Structures can show the parent of a compound that is named as a salt.
Observed Property: solubility

CN(C)CCn1c(CC(C)(C)C)nc2cc(S(=O)(=O)C3CN(CCO)C3)ccc21 [AAT-730 HCl salt] ... ≥ 20 mg/mL

----------
Experiment Summary: physchem
Test Conditions: 25 °C, pH 6.6, water, thermodynamic from solid
Counter-ions that a name gives are not always drawn.
Observed Property: solubility thermodynamic

CN(C)CCn1c(CC(C)(C)C)nc2cc(S(=O)(=O)C3CN(CCO)C3)ccc21 [AAT-730 HCl salt] ... ~220 mg/mL

----------
Experiment Summary: physchem
Test Conditions: 20 °C, organic solvent or mixture, thermodynamic from solid, Solubility at 20° C., DMSO/water (80/20, Aw at most 0.27), aliquot addition
Where a name gives a salt, the structure may show the parent alone.
Observed Property: solubility

CN(C)CCn1c(CC(C)(C)C)nc2cc(S(=O)(=O)C3CN(CCO)C3)ccc21 [AAT-730 HCl salt] ... 22 to 25 mg/mL

----------
Experiment Summary: Solubility estimation of AAT-730 by aliquot addition
Assay type: physicochemical
Test Conditions: thermodynamic from solid; water, ambient temperature, aliquot addition; read-out: aqueous solubility
Observed Property: solubility

CN(C)CCn1c(CC(C)(C)C)nc2cc(S(=O)(=O)C3CN(CCO)C3)ccc21 [AAT-730] ... 367 to 514 mg/mL
